// data source = PubChem BioAssay

target: Beta-2 adrenergic receptor (Homo sapiens); test: beta2AR agonists driving receptor internalization, pilot screen, cell-based, FAP fluorogen, flow cytometry, validation set (AID 504459); conditions: Am2.2-beta2AR cells, FAP surface receptor flow cytometry; at 10 µM; active compounds read high;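 further: agonist-driven loss of surface beta2AR via internalization measured by FAP dye flow cytometry; reference of the scale not given here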
# key: entry, value: response
API: value field is a number in %; no unit string.

Illustrative cases are given below, each with its answer.
| Compound | Quantitative Result |
| --- | --- |
| COc1ccc2c(c1)[nH]c1c(=O)n(Cc3ccccn3)cnc12 | 2.42 |
| O=C(CCCCCCCC(=O)c1ccccc1)c1ccccc1 | 9.71 |
| COc1ccc(NC(=O)C2CSC3c4ccccc4C(=O)N23)cc1 (stereo not drawn) | 7.07 |
| Cc1ccc2c(c1)C(O)(CC(=O)/C=C/C=C/c1ccccc1)C(=O)N2 (stereo not drawn) | -0.9 |
| Cc1ccc(P(=O)(CSC(=N)N)c2ccc(C)cc2)cc1 | 1.61 |
| CC(=O)NCCCC(=O)NC(CCC(=O)OCc1ccccc1)C(=O)OCc1ccccc1 (stereo not drawn) | 6.65 |

Asked: Request the reported response associated with C#CCN1C(=O)C(O)(CC(=O)c2ccc(OC)c(OC)c2)c2ccccc21 (stereo not drawn)
Given back: -2.19

Asked: Need response, item C[C@]12CC[C@@H]3c4cc(O)c(O)cc4CC[C@H]3[C@@H]1CC[C@@H]2O
Given back: 0.11

Asked: What measured response goes with CC(=O)C1=C(NC(=O)c2ccc(C(F)(F)F)cc2)C[C@@H]2[C@H]1C2(C)C ?
Given back: 0.35

Asked: Given the entry COc1ccc(NC(=S)NCCc2c[nH]c3ccccc23)cc1 , report its measured response.
Given back: -13.3

Asked: Any idea what its response is? The compound is C[C@H](NC(=O)Nc1ccccc1F)C(=O)O
Given back: -5.56

Asked: Consider the compound shown here: Cc1ccc(NCCC(=O)c2ccccc2)cc1Cl What is its recorded response?
Given back: 2.53

Asked: Requested read-out: response. Entry: O=C(c1ccccc1F)c1cc2c(cc1[N+](=O)[O-])OCCO2
Given back: 24.6

Asked: # input compound: Cc1oc2c(C)c3oc(=O)c4c(c3cc2c1C)CCCC4 ; wanted: its response
Given back: -4.45

---

experiment: superoxide lowering in aged yeast cells, pilot screen, validation compound set (AID 2706);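 further: yeast exposed to compound for one week at 30 degrees C before staining; 100% = mean of all compound wells on the same plate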; conditions: S. cerevisiae aging, superoxide DHE fluorescence; at 10 µM, active compounds read low
The following molecules are shown together with reported superoxide response (% of plate) values.
Value expressed in %; do not type the unit.

| Molecule | Quantitative Result |
| --- | --- |
| O[C@@H](CNC[C@H](O)c1ccccc1)c1ccccc1 | 99.8 |
| CN(C)c1nc(N(C)C)nc(N(C)C)n1 | 95.5 |
| COc1ccc(CCCC(=O)O)c(C)c1 | 92.3 |
| OC[C@H]1O[C@@H](n2cnc3c(NC4CCCC4)ncnc32)[C@H](O)[C@@H]1O | 102 |
| C[C@@H]1C[C@H]2[C@@H]3CCC4=CC(=O)C=C[C@]4(C)[C@@]3(F)[C@@H](O)C[C@]2(C)[C@@]1(O)C(=O)COP(=O)(O)O | 106 |
| Cc1ccc(OCCSc2ncccn2)c(C)c1 | 114 |

Asked: superoxide response (% of plate) lookup needed for c1ccc2c(c1)CCCC2C1=NCCN1 (configuration not stated) , thanks.
Given back: 82.6

Asked: Which value of superoxide response (% of plate) has been reported for COc1ccc(OC)c(-c2oc3ccccc3c(=O)c2O)c1 in the records?
Given back: 102

Asked: // returns reported superoxide response (% of plate) for input O=C(NNC(=O)c1cccs1)c1ccco1
Given back: 95.2

Asked: Tell me the measured superoxide response (% of plate) of CC(COc1ccccc1)NC(C)C(O)c1ccc(O)cc1 (configuration not stated) , please.
Given back: 107

Asked: Need superoxide response (% of plate) of CCOc1ccc(C(=O)Nc2ccc(N3CCN(C(C)=O)CC3)cc2)cc1[N+](=O)[O-] , thanks.
Given back: 100

Asked: Requested field: superoxide response (% of plate). Item: COc1ccc2c(c1)C(=O)CC(c1ccccc1F)O2 (configuration not stated)
Given back: 97
